# Tested on: SF-295 CNS
# Experiment Summary: NCI tumour cell line growth inhibition, 48 h
For each of the compounds below, state its GI50.

Below are some compounds; for each one, tell me its GI50.
1. CN(C(=O)C(C)(C)C)c1ccccc1I(=O)=O
2. Cc1nnc(N/N=C/c2ccc([N+](=O)[O-])o2)[nH]c1=O
3. CC(=O)C1=C(C)N(Cc2ccccc2)C2(O)C=CC(=O)C3=C(O)c4ccccc4C(=O)C312 (stereo not given)
4. O=C(Nc1ccc(Cl)c(Cl)c1)c1ccc(NC2=C(Cl)C(=O)N(Cc3ccccc3)C2=O)cc1
5. CCCCCCCCN(CCCCCCCC)CC(O)c1cc(-c2ccccc2)nc2ccc(OC)cc12 (stereo not given)
6. CN1C(=O)N(C)C2C1NC(=S)N2/N=C/C=C/c1ccccc1[N+](=O)[O-] (stereo not given)

A.
1: > 100000 nM; 2: 1930 nM; 3: 12500 nM; 4: 13600 nM; 5: > 100000 nM; 6: 625 nM

Below are some compounds; for each one, tell me its GI50.
1. Clc1cnc(Nc2ccc(OCCN3CCCC3)cc2)nc1NCc1ccco1
2. CC1Cc2c(Cl)ncnc2N(C)c2ccccc21 (stereo not given)
3. CCN(CC)CCOc1nc2ccccc2c2c1-c1ccc(OC)cc1C2=O
4. CCN1CCN(c2ccc(NC(=O)Nc3nc4ccc(-c5ccccc5OC)cc4s3)cc2)CC1
5. C[C@@H]1CC[C@@H]2[C@@H]1[C@H](OC(=O)/C=C/C1CCCCC1)[C@]1(C3CCCCC3)C[C@@H](OC(=O)CO)[C@@]2(C)O1
6. CCC(=O)NC1=C(Cl)C(=O)C(NC(=O)CC)=C(Cl)C1=O
7. Cc1[nH]nc(C(F)(F)F)c1Cc1sc2c(c1C(=O)N1C[C@](C)(O)CO1)c(=O)n(C)c(=O)n2C(C)C
8. COC(=O)Nc1nc2ccc(C(=O)c3cccc(I)c3)cc2[nH]1

A.
1. 2180 nM
2. 3280 nM
3. 1910 nM
4. 1680 nM
5. 14300 nM
6. > 39200 nM
7. > 100000 nM
8. 64.7 nM

Quick note, GI50 for O=C1/C=C/[C@@H](O)[C@@H]2C[C@@H](O)C[C@H]2/C=C/CCC[C@H](CCO)O1 landed at 290 nM

----------
# Tested on: KM20L2 colon
# Experiment Summary: NCI tumour cell line growth inhibition, 48 h
Where a SMILES comes first, the peptide text is derived from it. [ ]: non-standard residue; d: D form.
Measured Property: TGI

Would you please look over these solved cases?
O=C(CC12C3C4C1C1C2C3C41CC(=O)NO)NO (stereo not given) ... > 100 µM
O=C(Nc1ccc(Br)cc1)C(=O)C(C(=O)c1ccc(Cl)c(Cl)c1)C1OC(=O)c2ccccc21 (stereo not given) ... > 100 µM
COc1cc2c(cc1OC)C(Cl)C(c1ccc(Br)cc1)=C2Cl (stereo not given) ... 41.3 µM
N#CC1=C(O)NC(O)=C(C#N)C1c1c(Cl)cccc1Cl ... > 100 µM

Below are some compounds; for each one, tell me its TGI.
1. C=CCC1(CN(C)C)CC/C(=C\c2ccc3c(c2)OCO3)C1=O (stereo not given)
2. CCCCCCCCCC1CC(=O)OC2=C1C(=O)CCC2 (stereo not given)
3. OC1OCC(COc2cc(Cl)c(Cl)cc2Cl)OC1O (stereo not given)
4. CC1C(c2ccccc2)N(C)C(c2ccccc2)C(C)C1(O)c1ccccc1 (stereo not given)
5. Cc1cc(N(CCC#N)S(=O)(=O)c2ccccc2)ccc1C=Nc1ccc(C(=O)O)cc1
6. CC(C)C[C@H](NC(=O)[C@H](CC(C)C)NC(=O)[C@@H](Cc1c[nH]c2ccccc12)NC(=O)[C@H](Cc1ccccc1)NC(=O)[C@@H](Cc1c[nH]c2ccccc12)NC(=O)[C@H](CCC(N)=O)NC(=O)[C@@H](CCC(N)=O)NC(=O)[C@@H]1CCCN1C(=O)[C@@H](CCCCN)NC(=O)[C@H]1CCCN1C(=O)[C@H](N)CCCN=C(N)N)C(N)=O (H-[dR][dP][dK]P[dQ]Q[dW]F[dW]LL-NH2)

A.
1. > 100 µM
2. > 100 µM
3. > 100 µM
4. > 100 µM
5. 28.6 µM
6. > 100 µM

----------
# Test system: OVCAR-4 ovarian
# Experiment Summary: NCI tumour cell line growth inhibition, 48 h
For each of the molecules below, state its TGI.

Would you please look over these solved cases?
Cc1cn(C2CC(O)C(Cn3nncc3Cn3nc(Br)c(=O)[nH]c3=O)O2)c(=O)[nH]c1=O (centres undefined) ... > 100 µM
COC(=O)[C@]1(C)CCC[C@@]2(C)C3=C(CC[C@H]12)C[C@@H](CC(OC(C)=O)OC(C)=O)[C@@H](C)C3 ... 47.4 µM
COc1cc2[nH]c3c(c2cc1OC)CCN[C@@]31CC[C@@]2(CC3c4c(cc(OC)c(O)c42)CCN3C)C[C@@H]1OC (some centres undefined) ... > 100 µM

Quick note, TGI for COc1ccc(N=NC2=C(O)CCC2=O)cc1 landed at > 100 µM

----------
For each of the compounds below, state its TGI.
# Tested on: XF 498 CNS
# Experiment Summary: NCI tumour cell line growth inhibition, 48 h

Would you please look over these solved cases?
CCC(=O)OCOc1ccc(/C=C2\CCC(CN(C)C)C2=O)cc1 (stereo unspecified) ... 4.15 µM
CC1(C)CC(=O)C(CC2C(=O)CCCC2=O)C(=O)C1 ... > 100 µM
Cc1cc(-c2ccccc2)nc(Nc2cc3ccccc3[nH]2)n1 ... > 100 µM
NC(=O)NNC/C(Cl)=C(\Cl)C(=O)O ... > 100 µM
O=C(CC12C3C4C1C1C2C3C41CC(=O)NO)NO (stereo unspecified) ... > 100 µM

Let us examine a further case.
Quick note, TGI for O=C(Nc1ccc(Br)cc1)C(=O)C(C(=O)c1ccc(Cl)c(Cl)c1)C1OC(=O)c2ccccc21 (stereo unspecified) landed at 96.2 µM

----------
For each of the compounds below, state its TGI.
# System: UACC-257 melanoma
# Experiment Summary: NCI tumour cell line growth inhibition, 48 h

Would you please look over these solved cases?
CC(=O)NC1C(OCc2ccccc2)OC(CO)C(O)C1OC(C)C(=O)NC(C(=O)NC(CCC(=O)NCCCNc1ccc([N+](=O)[O-])c2[nH]c3ccccc3c(=O)c12)C(N)=O)C(C)C (centres undefined) ... > 100 µM
NS(=O)(=O)c1ccc(-c2ccc([As](=O)(O)O)cc2)cc1 ... > 100 µM
NC(=Nc1ccccc1)N/N=C/c1c[nH]c2ccccc12 ... 12.2 µM

Below are some compounds; for each one, tell me its TGI.
1. Cc1cc(-c2ccccc2)nc(Nc2cc3ccccc3[nH]2)n1
2. CCCCCCc1ccc(CCCCCCCC(=O)O)o1
3. O=C(CC(=O)N1N=C(c2ccccc2)C(N=Nc2ccc(S(=O)(=O)CCOS(=O)(=O)O)cc2)C1=O)Nc1ccc(Cl)cc1 (centres undefined)
4. C1=CC2C(C3CN(c4ccccc4)N=C13)C1C3C4C=CC21C=CC43 (centres undefined)
5. CCN1CCN(c2ccc(NC(=O)Nc3nc4ccc(-c5ccccc5OC)cc4s3)cc2)CC1
6. CC1(C)OCC2OC(n3cnc4c(N)nc(Cl)nc43)C(OS(C)(=O)=O)C2O1 (centres undefined)

A.
["> 100 µM", "> 100 µM", "> 100 µM", "> 100 µM", "3.79 µM", "> 100 µM"]

----------
# Tested on: NCI-H23 lung
# Experiment Summary: NCI tumour cell line growth inhibition, 48 h
Measured Property: GI50

Would you please look over these solved cases?
CCCCCCCCN(CCCCCCCC)CC(O)c1cc(-c2ccccc2)nc2ccc(OC)cc12 (centres undefined) ... 43.4 µM
CC1Cc2c(Cl)ncnc2N(C)c2ccccc21 (centres undefined) ... 2.82 µM
Nc1nc(-c2ccc3c(c2)/C(=C\c2cc(Br)c(O)c(Br)c2)C(=O)N3)cs1 ... 14.3 µM

Let us examine a further case.
Item: CC1(C)CCC2=C(O1)c1ccccc1C(=Nc1ccc([N+](=O)[O-])cc1)C2=O | System: NCI-H23 lung | GI50: 18.3 µM

----------
# Tested on: LOX IMVI melanoma
# Experiment Summary: NCI tumour cell line growth inhibition, 48 h
For each of the molecules below, state its GI50.

Would you please look over these solved cases?
CC1=CC(C)=N/C(=N/S(=O)(=O)c2cc(C)c(Cl)cc2SCc2ccccc2)NN1 ... > 100 µM
CN1C(=O)N(C)C2C1NC(=S)N2/N=C/C=C/c1ccccc1[N+](=O)[O-] (stereo not given) ... 0.87 µM
COc1ccc2c3ccnc(C(F)(F)F)c3n(CCCCN)c2c1 ... 4.38 µM
CCCCCCC(=O)NC1=C(N2CC2)C(=O)C(NC(=O)CCCCCC)=C(N2CC2)C1=O ... 3.03 µM

Let us examine a further case.
Quick note, GI50 for CCCCCCCCN(CCCCCCCC)CC(O)c1cc(-c2ccccc2)nc2ccc(OC)cc12 (stereo not given) landed at 12.6 µM
